The entries below are paired with their reported growth.
System: BT-549 breast
assay info: NCI-60 one-dose screen, 48 h (100 = growth as untreated, 0 = no growth, -100 = all killed)
condition: 10 µM
The panel holds about 83,000 compounds, 20% with a hit somewhere; the sample as a whole holds those more often.
Give the quantity in %, number only.

{"columns": ["molecule", "value units", "growth"],
 "data": [
  ["N#CCCN1C/C(=C/c2ccccc2)C(=O)/C(=C/c2ccccc2)C1", "%", 44.3],
  ["CCN(CC)CCOc1nc2cc(OC)c(OC)cc2c2c1-c1ccc(OC)cc1C2=O", "%", 81.3],
  ["CC1CN(Cc2ccccc2)C(=O)NC1=O (stereo not given)", "%", 103],
  ["CCCC1(CC(=O)O)OCCc2c1[nH]c1ccccc21 (stereo not given)", "%", 119],
  ["CC/C(=C(/c1ccc(OCCN(C)C)cc1)c1ccc(OC(=O)CCCCCCCCC(=O)c2c(C)[nH]c(/C=C3\\N=C(c4ccc[nH]4)C=C3OC)c2C)cc1)c1ccccc1", "%", 69.2],
  ["CCCCC(CCCCCC(CCCC)NCc1ccc2c(c1)OCO2)NCc1ccc2c(c1)OCO2 (stereo not given)", "%", -65.7],
  ["O=C(N/N=C\\c1cc(Cl)ccc1[N+](=O)[O-])c1ccco1", "%", 101],
  ["COc1ccccc1/C=C/C(=O)c1ccccc1", "%", 88.4]
]}

growth lookup needed for CC(=O)CSC(C)=O , thanks.
105

COC(=O)C1=NNC(=S)N(c2cc(C)[nH]n2)C(=O)C1 , same question.
107

O=C(Nc1cccc(-n2cc(-c3ccncc3)c(-c3ccc(O)c(Cl)c3)n2)c1)Nc1cccc(C(F)(F)F)c1 , same question.
13.3

COc1cc(-c2nc(Nc3nc4ccccc4s3)[nH]c(=O)c2C#N)cc(OC)c1O , same question.
98.1

c1ccc([I+]c2ccccc2)cc1 , same question.
65.5

COc1ccc2c(c1)O/C(=C\c1ccc([N+](=O)[O-])s1)C2=O , same question.
7.31

CN1CCC2(CC1)NC(=O)c1c(c3ccc(Cl)c(Cl)c3n1C)C2C#N (stereo not given) , same question.
84.9

Data provenance: PubChem BioAssay (NCI)
